Entry source: PubChem BioAssay (NCATS)

# ASSAYED_TARGET: Aldehyde dehydrogenase, mitochondrial (Homo sapiens)
# ASSAY_REMARKS: qHTS for Inhibitors of the Aldehyde Dehydrogenase Family (ALDH2) Primary screen (AID 2061308);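 also: plate controls were vehicle for no effect and reference inhibitor for full effect; nearly all actives have a fitted effect of over 55% in size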
# EXPERIMENTAL_PARAMETERS: ALDH2 enzyme inhibition qHTS, 1536-well; series mostly up to 56 µM
Records with an inconclusive call do not appear. Calls of active or inactive are those of the source. Calls follow the shape of the dose curve; as a rule, active = well fitted inhibition curve with a large enough effect; inconclusive = small, poorly fitted or top-dose-only effect; inactive = flat fitted curve, though single readings scatter.
OBSERVABLE: activity change, negative = inhibition

>>> measured_value("CC12CCC(C(OC3OC(COC4OCC(O)(CO)C4O)C(O)C(O)C3O)C1)C(C)(C)O2 (stereo not given)")
"inactive"
>>> measured_value("COc1c2c(c(C)c3c1C(=O)OC3)OC1(C)CC(O)C(C(C)(C)O)C(C)(CCC(=O)O)C1C2 (stereo not given)")
"inactive"
>>> measured_value("C/C=C(\\C)C(=O)O[C@H]1C=CC(=O)O[C@H]1/C=C/[C@@H](O)[C@H](C)O")
"inactive"
>>> measured_value("CN(C)C(=O)NC1CCC(CCN2CCN(c3cccc(Cl)c3Cl)CC2)CC1 (stereo not given)")
"8.14% [at 11.2 µM] (inactive)"

Could you now consider this next compound?
**Q:** Need activity change, negative = inhibition of `NC(=O)c1ccccc1Nc1ccnc(Nc2cccc(O)c2)n1` , thanks.
**A:** inactive

---

Each item that follows carries a reported viability.
# ASSAY_REMARKS: BET inhibitor-based combinations targeting novel dependencies in MECOM-rearranged (r) AML: SET-2 cell line (AID 2202231);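 also: plate controls were DMSO treated cells for no effect and wells without cells for full effect; nearly all actives have a fitted effect of over 35% in size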
# EXPERIMENTAL_PARAMETERS: SET-2 AML cells viability, CellTiter-Glo luminescence, 48 h; stronger effect = lower value, concentration not given here
Records with an inconclusive call do not appear.
Dear colleague, please return just the value in %, with no unit written.

Here is how some compounds turned out for viability.
>>> measured_value("CCN(c1ccccc1)c1cc(NC)[n+](C)c(C)n1")
117
>>> measured_value("O=C(Nc1c(Cl)cncc1Cl)c1ccc(OC(F)F)c(OCC2CC2)c1")
98.8
>>> measured_value("CC(=O)NC(CS)C(=O)O (stereo unspecified)")
104
>>> measured_value("CC(C)(C#N)c1cc(Cn2cncn2)cc(C(C)(C)C#N)c1")
107
>>> measured_value("Cn1cc(-c2ccc(F)c(C(F)(F)F)c2)nc1C1CCN(c2ncnc3[nH]ncc23)CC1")
96.6

**Q:** Need viability of `COCCOc1ccc(N2CCN(CCn3ncc4c3nc(N)n3nc(-c5ccco5)nc43)CC2)cc1` , thanks.
**A:** 113

---

# ASSAY_REMARKS: BET inhibitor-based combinations targeting novel dependencies in MECOM-rearranged (r) AML: MV-4-11 cell line (AID 2202233); also: potency is read from the fitted curve at half-maximal effect; nearly all actives have a fitted effect of over 45% in size
# EXPERIMENTAL_PARAMETERS: MV-4-11 AML viability, CellTiter-Glo luminescence, 48 h; series mostly up to 46 µM
Inconclusive results are not listed. Calls of active or inactive are those of the source. The call rests on the fitted dose curve; in most records, active means well fitted inhibition curve with a large enough effect; inconclusive means small, poorly fitted or top-dose-only effect; inactive means no such curve, though single readings can be large or run the other way.
OBSERVABLE: Potency

>>> measured_value("Cn1cc(-c2ccc(S(=O)(=O)n3ccc(/C=C/C(=O)Nc4ccccc4N)c3)cc2)cn1")
"1.18 µM (active)"
>>> measured_value("NC(=O)Nc1cc(-c2ccc(CN3CCOCC3)cc2)sc1C(N)=O")
"0.332 µM (active)"
>>> measured_value("FC(F)(F)c1ccc(/C=C/c2nc(COc3ccc(CCCCn4ccnn4)cc3)co2)cc1")
"0.0295 µM (active)"

Could you now consider this next compound?
**Q:** Need Potency of `COc1ccc(Cl)c(Nc2ncnc3cc(OCC4CCN(C)CC4)c(OC)cc23)c1` , thanks.
**A:** 5.9 µM (active)

---

# ASSAYED_TARGET: Cellular tumor antigen p53 (Homo sapiens) (UniProt P04637)
# Sequence (P04637 whole entry, looked up): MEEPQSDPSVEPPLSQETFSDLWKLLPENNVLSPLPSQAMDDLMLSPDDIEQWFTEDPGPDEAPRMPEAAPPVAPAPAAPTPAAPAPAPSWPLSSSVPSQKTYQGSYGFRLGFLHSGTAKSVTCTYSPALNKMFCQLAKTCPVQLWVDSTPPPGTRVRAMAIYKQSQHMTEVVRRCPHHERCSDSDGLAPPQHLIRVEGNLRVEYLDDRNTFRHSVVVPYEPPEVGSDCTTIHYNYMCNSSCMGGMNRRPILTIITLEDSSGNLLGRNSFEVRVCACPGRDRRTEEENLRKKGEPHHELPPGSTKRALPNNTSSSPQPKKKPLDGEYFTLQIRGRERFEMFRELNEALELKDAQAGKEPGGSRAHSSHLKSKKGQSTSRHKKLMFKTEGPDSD
# ASSAY_REMARKS: Primary qHTS for small molecule compounds that upregulate eGFP-tagged delta133p53alpha (in N-terminal) cells. (AID 2060322);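 also: cells pre-induced with doxycycline then dosed without doxycycline; 0% = DMSO vehicle and 100% = reference activator; nearly all actives have a fitted effect of over 75% in size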
# EXPERIMENTAL_PARAMETERS: NCI-H358 eGFP-delta133p53alpha fluorescence, 24 h; stronger effect = higher value
Results filed as inconclusive are left out.
Each item that follows carries a reported activation.
Dear colleague, please return just the value in %, with no unit written.

Here is how some compounds turned out for activation.
>>> measured_value("CCCCCC[C@@H]([C@@H](C)O)n1cnc2c(N)ncnc21")
-41.6
>>> measured_value("Cc1cc2c(OCC(CNC(C)(C)C)OC(=O)c3ccccc3)cccc2[nH]1 (centres undefined)")
9.6

**Q:** Need activation of `CC/C=C\[C@H](O)[C@H](O)C1=C(C)C(=O)[C@]2(O1)C(=O)N[C@@](O)(C(=O)c1ccccc1)[C@@H]2O` , thanks.
**A:** -14.5

**Q:** Need activation of `COC(=O)c1[nH]c(=O)c2ccccc2c1-c1ccc[nH]1` , thanks.
**A:** -11.6

**Q:** Need activation of `O=C(O)c1ccccc1C(=O)Nc1ccc(S(=O)(=O)Nc2nccs2)cc1` , thanks.
**A:** 8.47

**Q:** Need activation of `Nc1c(-c2ccccc2)nc(Cl)c2c(O)n[nH]c(=O)c12` , thanks.
**A:** -1.91

**Q:** Need activation of `NC1CCN(c2cccc(Cl)n2)CC1` , thanks.
**A:** -10.7

**Q:** Need activation of `CC(=O)N[C@@H](Cc1ccc(O)cc1)C(=O)O` , thanks.
**A:** 0.837

**Q:** Need activation of `Cc1ccc(C(=O)c2ccc(CC(=O)O)n2C)cc1` , thanks.
**A:** 14.1

**Q:** Need activation of `Cc1cc(C2CCCCC2)n(O)c(=O)c1` , thanks.
**A:** 25.4

**Q:** Need activation of CC1(C)CC[C@]2(C(=O)O)CC[C@]3(C)C(=CCC4[C@@]5(C)C[C@@H](O)[C@H](O)C(CO)(CO)C5CC[C@]43C)C2[C@@H]1O (some centres undefined) , thanks.
**A:** -9.16

**Q:** Need activation of `COc1ccc([C@H]2Cc3cccc(O)c3C(=O)O2)cc1` , thanks.
**A:** 3.05

---

Each item that follows carries a reported activation.
# ASSAYED_TARGET: Cellular tumor antigen p53 (Homo sapiens) (UniProt P04637)
# ASSAY_REMARKS: Primary qHTS for small molecule compounds that upregulate eGFP-tagged delta133p53alpha (in N-terminal) cells. (AID 2060322);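 also: cells pre-induced with doxycycline then dosed without doxycycline; 0% = DMSO vehicle and 100% = reference activator; nearly all actives have a fitted effect of over 75% in size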
# EXPERIMENTAL_PARAMETERS: NCI-H358 eGFP-delta133p53alpha fluorescence, 24 h; stronger effect = higher value
# Text: Assay Development and Screening Technology National Center for Advancing Translational Sciences (NCATS), National Institute of Health (NIH), Rockville, Maryland Cellular senescence (CS) is one of the hallmarks of aging and age-related diseases. […] Here we report the development and validation of a cell-based quantitative high throughput screening (qHTS) assay in 1,536-well format. […]
Records with an inconclusive call do not appear.
Dear colleague, please return just the value in %, with no unit written.

Here is how some compounds turned out for activation.
>>> measured_value("CC(C)(C)NCC(O)COc1cccc2c1CCC(=O)N2 (stereo not given)")
28.5
>>> measured_value("COc1cccc(OC)c1-c1cc(C(=O)NC2(C(=O)O)C3CC4CC(C3)CC2C4)nn1-c1ccnc2cc(Cl)ccc12 (stereo not given)")
-14.3
>>> measured_value("COc1cc(C=CC(=O)O)ccc1O")
-12.5

**Q:** Need activation of `Cc1cc(C)nc(NS(=O)(=O)c2ccc(N)cc2)n1` , thanks.
**A:** 24.3

**Q:** Need activation of `CC(=O)O[C@]1(C(C)=O)CC[C@H]2[C@@H]3C=C(C)C4=CC(=O)CC[C@]4(C)[C@H]3CC[C@@]21C` , thanks.
**A:** -26.8

---

# ASSAYED_TARGET: Aldehyde dehydrogenase, mitochondrial (Homo sapiens)
# ASSAY_REMARKS: qHTS for Inhibitors of the Aldehyde Dehydrogenase Family (ALDH2) Primary screen (AID 2061308);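 also: plate controls were vehicle for no effect and reference inhibitor for full effect; nearly all actives have a fitted effect of over 55% in size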
# EXPERIMENTAL_PARAMETERS: ALDH2 enzyme inhibition qHTS, 1536-well; series mostly up to 56 µM
Results filed as inconclusive are left out. Active and inactive are the calls of the source. The call rests on the fitted dose curve; in most records, active means well fitted inhibition curve with a large enough effect; inconclusive means small, poorly fitted or top-dose-only effect; inactive means flat fitted curve, though single readings scatter.
OBSERVABLE: activity change, negative = inhibition

Here is how some molecules turned out for activity change, negative = inhibition.
>>> measured_value("COC1=CC(=O)C[C@@H](C)[C@]12Oc1cc(OC)cc(OC)c1C2=O")
"inactive"
>>> measured_value("COc1cc(N2CCC(N3CCN(C)CC3)CC2)ccc1Nc1ncnc(Nc2ccccc2S(=O)(=O)C(C)C)n1")
"inactive"
>>> measured_value("O=C(Nc1ccc(S(=O)(=O)Nc2nccs2)cc1)C(c1ccccc1)c1ccccc1")
"inactive"
>>> measured_value("C[C@@H](N)c1ccc(C(=O)Nc2ccnc3[nH]ccc23)cc1")
"inactive"
>>> measured_value("Cc1ccn(-c2ccc(-c3ncco3)cc2)c(=O)c1-c1ccc2nc(N)ncc2c1")
"inactive"
>>> measured_value("OC[C@@]1(O)CO[C@@H](OC[C@H]2O[C@@H](Oc3ccccc3)[C@H](O)[C@@H](O)[C@@H]2O)[C@@H]1O")
"inactive"

**Q:** Need activity change, negative = inhibition of CC(=C\C(C)O)/C=C(\C)C(=O)CC1CC(CC(N)=O)CC(=O)O1 (stereo not drawn) , thanks.
**A:** inactive

**Q:** Need activity change, negative = inhibition of `O=C(/C=C/c1ccc(O)cc1)O[C@H]1[C@@H]2C=CO[C@@H](O[C@@H]3O[C@H](CO)[C@@H](O)[C@H](O)[C@H]3O)[C@@H]2[C@@]2(CO)O[C@@H]12` , thanks.
**A:** inactive

**Q:** Need activity change, negative = inhibition of `C=CC[N+]1([C@H]2C[C@H]3[C@@H]4CC[C@H]5C[C@H](OC(C)=O)[C@@H](N6CCCCC6)C[C@]5(C)[C@H]4CC[C@]3(C)[C@H]2OC(=O)CC)CCCCC1` , thanks.
**A:** inactive

**Q:** Need activity change, negative = inhibition of CC(=O)/C=C/C1C(C)CC(O[C@@H]2O[C@H](CO)[C@@H](O)[C@H](O)[C@H]2O)CC1(C)C (stereo partly drawn) , thanks.
**A:** inactive

**Q:** Need activity change, negative = inhibition of `C=CC(=O)Nc1cccc(Nc2nc(Nc3ccc(NC4CN(CCF)C4)cc3OC)ncc2C(F)(F)F)c1` , thanks.
**A:** inactive

**Q:** Need activity change, negative = inhibition of `COc1ccc2c(c1O)OC[C@H]1c3ccc(O)cc3O[C@@H]21` , thanks.
**A:** inactive

**Q:** Need activity change, negative = inhibition of C=CC1(C)C=C2CCC3C(C)(C)C(O[C@@H]4O[C@@H](CO)[C@H](O)[C@H]4O)CCC3(C)C2CC1O[C@@H]1O[C@H](C)[C@H](O)[C@H](O)[C@H]1O (stereo partly drawn) , thanks.
**A:** inactive

**Q:** Need activity change, negative = inhibition of C=CC1C(O[C@@H]2O[C@H](CO)[C@@H](O)[C@H](O)[C@H]2O)OC=C(C(=O)OC)C1CC(=O)O (stereo partly drawn) , thanks.
**A:** inactive

**Q:** Need activity change, negative = inhibition of `O=S(=O)(NCCCCCCNS(=O)(=O)c1c(F)cccc1F)c1ccc2c(c1)OCCO2` , thanks.
**A:** inactive

**Q:** Need activity change, negative = inhibition of `CCN(CC)CCNC(=O)c1ccc2nc(-c3ccccc3)c(-c3ccc(CN4CCC(n5c(=O)[nH]c6ccccc65)CC4)cc3)nc2c1` , thanks.
**A:** inactive

**Q:** Need activity change, negative = inhibition of `CC(=O)Nc1sc2c(c1-c1cnn(C(C)=O)c1)CCNC2` , thanks.
**A:** inactive

**Q:** Need activity change, negative = inhibition of COc1cc2c(cc1O)C1(OC)Cc3ccc4c(c3C1N(C)CC2)OCO4 (stereo not drawn) , thanks.
**A:** inactive

**Q:** Need activity change, negative = inhibition of `CC#CC(=O)N1CCC[C@H]1c1nc(-c2ccc(C(=O)Nc3ccccn3)cc2)c2c(N)nccn12` , thanks.
**A:** inactive

**Q:** Need activity change, negative = inhibition of CC(C)(O)C1CCC2(C)C3C(O)C4C(C13)C42CO (stereo not drawn) , thanks.
**A:** inactive

**Q:** Need activity change, negative = inhibition of CC1=CCC2C(C)(C)CCCC2(C)C1CC12OC1C(O)C(CO)=CC2O (stereo not drawn) , thanks.
**A:** inactive

**Q:** Need activity change, negative = inhibition of `COC(=O)N1CCC(n2ncc3c(N4CCOCC4)nc(-c4ccc(NC(=O)Nc5ccc(CO)cc5)cc4)nc32)CC1` , thanks.
**A:** inactive
